FYI, the data here is from PubChem BioAssay (NCATS).

Experiment: Cell Viability - N2a (AID 540);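 also: cells exposed to compound for 40 h at 37 °C; plate controls were DMSO alone for no effect and tamoxifen control for full effect; nearly all actives have a fitted effect of over 45% in size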
Details: N2a mouse neuroblastoma cell viability; at 92.2 µM (top of the series)
Records with an inconclusive call do not appear.
Catalogue of activity change, negative = cytotoxicity values
Please respond with the number in % and leave the unit unwritten.

1) O=C(O)COc1ccccc1    -9.54

Which activity change, negative = cytotoxicity reading was recorded for the compound Nc1ccc(Sc2ccc(N)cc2)cc1 ?
-14

// query activity change, negative = cytotoxicity value for entry OCCCBr
9.77

So what does the record say about activity change, negative = cytotoxicity for C=CC(=O)NCNC(=O)C=C ?
2.37

Any idea what activity change, negative = cytotoxicity was measured for Cc1cc(O)ccc1Cl ?
-7.18

// activity change, negative = cytotoxicity lookup, key: CCCCCCCCc1ccc(O)cc1
-16.1

What value of activity change, negative = cytotoxicity has been reported for the following compound? CN(C)[C@@H]1C(=O)C(C(N)=O)=C(O)[C@@]2(O)C(=O)C3=C(O)c4c(O)cccc4[C@@](C)(O)[C@H]3[C@H](O)[C@@H]12
0.531

Quick one: activity change, negative = cytotoxicity for CCOCCOC(C)=O ?
-15.1

---

Experiment: NFAT Signaling Pathway (AID 444);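 also: carbachol stimulus at about its EC50 of 1 µM final; % is scaled to controls: 0 for no effect and ±100 for the full control effect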
Settings: Jurkat NFAT-bla M1, carbachol, beta-lactamase ratio, 5 h; at 38 µM (top of the series)
Inconclusive results are not listed. Active and inactive are the calls of the source. The call rests on the fitted dose curve; in most records, active means well fitted curve in either direction with a large enough effect (not every such curve was filed as active); inconclusive means small, poorly fitted or top-dose-only effect, or another doubt; inactive means flat fitted curve, though single readings scatter.
Your response should consist of one outcome taken from Y for active, N for inactive

Example results:
1) Cc1nccc2c1[nH]c1ccccc12    N
2) O=C(O)CC[N+](=O)[O-]    N
3) C#CCOC(=O)C1=CCCN(C)C1    Y
4) NCCc1c[nH]c2ccc(O)cc12    N
5) CN[C@@H]1C[C@@H](c2ccc(Cl)c(Cl)c2)c2ccccc21    N

For this molecule, state the assay outcome: CC(=O)NCCc1c[nH]c2ccccc12
N

Write down the call the test reported for this molecule. Item: Cc1c(C(=O)c2cccc3ccccc23)c2cccc3c2n1[C@H](CN1CCOCC1)CO3
N

Name the outcome recorded for NCCc1c[nH]c2ccccc12 in the assay.
N

# lookup: test call for CNCCc1c[nH]c2ccc(O)cc12
N

What call does the record list for CC1=NN=C(c2ccc(N)cc2)c2cc3c(cc2C1)OCO3 ?
N

Hello, I am checking results. What call was entered for CCCCc1ccc(C(=O)O)nc1 ?
N

Record lookup: outcome of this test for Cn1cnc(CCN)c1 ?
N

Any idea what this test logged for CNCCc1ccc(O)c(O)c1 ?
N

---

Assay: qHTS of pediatric cancer cell lines to identify multiple opportunities for drug repurposing: Primary screen for SJ-GBM2 cells (AID 1347091); also: potency is read from the fitted curve at half-maximal effect
Conditions: SJ-GBM2 viability, CellTiter-Glo luminescence, 48 h; series mostly up to 46 µM
Inconclusive results are not listed. Activity calls are given as the source filed them. Calls follow the shape of the dose curve; as a rule, active = well fitted cell-killing curve with a large enough effect; inconclusive = small, poorly fitted or top-dose-only effect; inactive = no such curve, though single readings can be large or run the other way.
property_label: Potency

Worked examples follow.
1. O=c1[nH]c2ccc(Cl)cc2c(N[C@@H]2CN3CCC2CC3)c1-c1nc2ccccc2[nH]1    46.9 nM (active)
2. O=[N+]([O-])c1ncc[nH]1    inactive
3. Cc1cc(O)ccc1Cl    inactive
4. CCC(=O)O[C@@H]1C=C2CCC3C(CCC4(C)C3CC[C@@H]4OC(=O)CC)C2CC1 (some centres undefined)    inactive
5. O=C(O)c1cc(Oc2ccc(C(F)(F)F)cc2Cl)ccc1[N+](=O)[O-]    inactive
6. CCC(=O)OC1CCC2C3CCC4=CC(=O)CC[C@@]4(C)C3CC[C@]12C (some centres undefined)    inactive
7. O=C(Oc1ccc([N+](=O)[O-])cc1)N1CCC(C(O)(c2ccc3c(c2)OCO3)c2ccc3c(c2)OCO3)CC1    inactive
8. COCCOCCO    inactive

Could you share which Potency value was measured for CCOP(=O)(NC(C)C)Oc1ccc(SC)c(C)c1 (centres undefined) ?
inactive

# Potency lookup, item CC(C)(C)c1cc(C=C(C#N)C#N)cc(Br)c1O
2640 nM (active)

Please report the recorded Potency for CCCCCC[C@H]1C(=O)O[C@H](C)[C@H](NC(=O)c2cccc(NC=O)c2O)C(=O)O[C@@H](C)[C@@H]1OC(=O)CC(C)C .
187 nM (active)

---

Experiment: Quantitative High-Throughput drug screen in 47 multiple myeloma cell lines against the NCATS MIPE library collection: Karpas620_DSMZ cell viability assay (AID 1918959); also: nearly all actives have a fitted effect of over 30% in size
Conditions: Karpas620 myeloma viability, CellTiter-Glo ATP luminescence, 48 h; series mostly up to 45.8 µM
Results filed as inconclusive are left out. Active and inactive are the calls of the source. The call rests on the fitted dose curve; in most records, active means well fitted cell-killing curve with a large enough effect; inconclusive means small, poorly fitted or top-dose-only effect, or effect the other way; inactive means no such curve, though single readings can be large or run the other way.
Return exactly one item of true (1) = active, false (0) = inactive

1. C[C@]12CC[C@@H]3[C@@H](CCC4=CC(=O)CC[C@@H]43)[C@@H]1CC[C@@H]2OC(=O)CCc1ccccc1    false (0)
2. CCN(CC)C(=O)c1ccc(C2=CC3(CCNCC3)Oc3cccc(O)c32)cc1    false (0)
3. CCN1C[C@]2(OC(=O)c3ccccc3NC(C)=O)CC[C@H](OC)[C@@]34[C@H]5CC6[C@@H](OC)C[C@](O)(C(C[C@@H]23)[C@@H]14)[C@@]5(O)[C@@H]6OC    false (0)

Lab log entry: COC1=CC(C)=C[C@@H](C)[C@@H](O)[C@@H](C)CC(C)=CC=C[C@H](OC)[C@H]([C@@H](C)[C@@H](O)[C@H](C)[C@@]2(O)C[C@@H](O)[C@H](C)[C@@H](C(C)C)O2)OC1=O — outcome as called in the assay?
true (1)

Would you mind telling me which call this test gave COc1ccc(CC2NCCc3cc(OC)c(OC)cc32)cc1OC (stereo not drawn) ?
false (0)

How was O=C1CCC[C@@H]2[C@H]3CCCN4CCC[C@@H](CN12)[C@@H]34 classified in this test?
false (0)

---

Assay: qHTS of pediatric cancer cell lines to identify multiple opportunities for drug repurposing: Primary screen for A673 cells (AID 1347092); also: % is scaled to controls: 0 for no effect and ±100 for the full control effect; nearly all actives have a fitted effect of over 45% in size
Settings: A673 Ewing sarcoma viability, CellTiter-Glo ATP luminescence, 48 h; series mostly up to 46 µM
Records with an inconclusive call do not appear. The source made the active and inactive calls. The call rests on the fitted dose curve; in most records, active means well fitted cell-killing curve with a large enough effect; inconclusive means small, poorly fitted or top-dose-only effect; inactive means no such curve, though single readings can be large or run the other way.
property_label: outcome

1) CSCC[C@@H](NC(=O)[C@@H](Cc1ccccc1)NC(=O)CNC(=O)CNC(=O)[C@@H](N)Cc1ccc(O)cc1)C(=O)O    inactive
2) C[C@@H]1[C@H](O)[C@@H](C)C=CC=CCCC=CC=CC=CC=C[C@H](O[C@H]2O[C@@H](C)[C@H](O)[C@@H](N)[C@@H]2O)CC2O[C@](O)(C[C@@H](O)[C@H](O)CC[C@@H](O)C[C@@H](O)C[C@@H](O)CC(=O)O[C@H]1C)C[C@H](O)[C@H]2C(=O)O    inactive
3) Cc1ccc(Cl)c(O)c1    inactive

---

Assay: Quantitative High-Throughput drug screen in 47 multiple myeloma cell lines against the NCATS MIPE library collection: KHM11_PLB cell viability assay (AID 1918962); also: nearly all actives have a fitted effect of over 35% in size
Settings: KHM11 myeloma cell viability, CellTiter-Glo ATP luminescence, 48 h; series mostly up to 45.8 µM
Records with an inconclusive call do not appear. Calls of active or inactive are those of the source. The call rests on the fitted dose curve; in most records, active means well fitted cell-killing curve with a large enough effect; inconclusive means small, poorly fitted or top-dose-only effect, or effect the other way; inactive means no such curve, though single readings can be large or run the other way.
Could you please pick one outcome from this set? active, inactive

1. COc1cc2cc(c1Cl)N(C)C(=O)C[C@H](OC(=O)C(C)C)[C@]1(C)O[C@H]1[C@H](C)[C@@H]1C[C@@](O)(NC(=O)O1)[C@H](OC)C=CC=C(C)C2    inactive
2. CSCC[C@@H](NC(=O)[C@@H](Cc1ccccc1)NC(=O)CNC(=O)CNC(=O)[C@@H](N)Cc1ccc(O)cc1)C(=O)O    inactive
3. C[C@@H]1O[C@@H](O[C@@H]2C=C3CC[C@@H]4[C@@H](CC[C@]5(C)[C@H](c6ccc(=O)oc6)CC[C@@]45O)[C@@]3(C)CC2)[C@H](O)[C@H](O)[C@H]1O    active
4. CC(=O)OCC1=C(C(=O)O)N2C(=O)[C@@H](N)[C@@H]2SC1    inactive
5. Cc1ccccc1-n1c(Cn2ncc3c(N)ncnc32)nc2cccc(C)c2c1=O    active

Could you kindly confirm the outcome this assay logged for c1ccc(CCCN2CCN(CCOC(c3ccccc3)c3ccccc3)CC2)cc1 ?
active

Outcome logged for CN(C)[C@@H]1C(=O)C(C(N)=O)=C(O)[C@@]2(O)C(=O)C3=C(O)c4c(O)cccc4[C@@](C)(O)[C@H]3[C@H](O)[C@@H]12 in this assay:
active

---

Test system: astro
Test: Drug repurposing screens with cells derived from glioblastoma tumor samples (AID 1345199); also: nearly all actives have a fitted effect of over 40% in size
Settings: viability, ATP luminescence, 48 h; series mostly up to 45.9 µM
Records with an inconclusive call do not appear. Activity calls are given as the source filed them. Calls follow the shape of the dose curve; as a rule, active = well fitted inhibition curve with a large enough effect; inconclusive = small, poorly fitted or top-dose-only effect; inactive = flat fitted curve, though single readings scatter.
In this exercise, the only acceptable responses are label 1 = active, label 0 = inactive

Please review the following examples before continuing.
1. CO/C=C(/C(=O)OC)c1ccccc1Oc1cc(Oc2ccccc2C#N)ncn1    label 1
2. Nc1c(Cl)c(Cl)c(Cl)c(Cl)c1Cl    label 0

Status in this test for CCCN(CCC)c1c([N+](=O)[O-])cc(S(N)(=O)=O)cc1[N+](=O)[O-] ?
label 1

What was the test verdict on CN(C)[C@@H]1C(=O)C(C(N)=O)=C(O)[C@@]2(O)C(=O)C3=C(O)c4c(O)cccc4[C@@](C)(O)[C@H]3[C@H](O)[C@@H]12 ?
label 0
